test: Cmax in rat at 10 mg/kg, po; format: ADME, organism-based; parameters: dose 10 mg/kg, route po; conditions: in vivo

>  <MOL>
O=C(Nc1ccc(N2CCNCC2)cc1)c1n[nH]cc1Nc1cc(Oc2ccccc2)ncn1

>  <RESULT_UNITS>
ng/mL

>  <Cmax>
144

$$$$

====

target: Cyclin-dependent kinase 6 (Homo sapiens, UniProt Q00534); assay: Inhibition of human CDK6 assessed as enzyme activity at 0.123 uM pretreated for 20 mins followed by [gamma-33P]-ATP addition and measured after 120 mins in presence of 10 uM ATP by radiometric Hot-SpotSM Kinase assay; design: scale not given: the % may be the effect or the level left; conditions: time 140.0 min
Sequence (Q00534 whole entry): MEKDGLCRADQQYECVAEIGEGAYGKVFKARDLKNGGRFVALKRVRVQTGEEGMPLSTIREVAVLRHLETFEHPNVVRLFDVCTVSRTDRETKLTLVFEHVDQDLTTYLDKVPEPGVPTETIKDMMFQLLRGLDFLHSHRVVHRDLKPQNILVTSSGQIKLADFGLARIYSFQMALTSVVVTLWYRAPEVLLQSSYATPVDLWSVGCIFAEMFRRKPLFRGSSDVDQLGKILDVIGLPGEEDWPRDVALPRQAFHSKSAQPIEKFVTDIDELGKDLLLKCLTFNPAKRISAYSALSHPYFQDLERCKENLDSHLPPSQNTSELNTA
Classification field: enter TRUE for Activity values not below 90%, FALSE for values below it.

>  <MOL>
O=C(Nc1ccc(N2CCNCC2)cc1)c1n[nH]cc1Nc1cc(OC2CCCCC2)ncn1

>  <GROUP_LABEL>
FALSE

$$$$
>  <MOL>
O=C(Nc1ccc(N2CCNCC2)cc1)c1n[nH]cc1Nc1cc(C2CCCCCC2)ncn1

>  <GROUP_LABEL>
TRUE

$$$$
>  <MOL>
O=C(Nc1ccc(N2CCNCC2)cc1)c1n[nH]cc1Nc1cc(C2=CCOCC2)ncn1

>  <GROUP_LABEL>
FALSE

$$$$
>  <MOL>
O=C(Nc1ccc(N2CCNCC2)cc1)c1n[nH]cc1Nc1cc(OC2CCCCCC2)ncn1

>  <GROUP_LABEL>
FALSE

$$$$
>  <MOL>
O=C(Nc1ccc(N2CCNCC2)cc1)c1n[nH]cc1Nc1cc(OCC2CCCC2)ncn1

>  <GROUP_LABEL>
FALSE

$$$$
>  <MOL>
O=C(Nc1ccc(N2CCNCC2)cc1)c1n[nH]cc1Nc1cc(C2CCCC2)ncn1

>  <GROUP_LABEL>
FALSE

$$$$

====

experiment: Oral bioavailability in rat at 10 mg/kg; format: ADME, organism-based; conditions: in vivo
READOUT_KIND: bioavailability (%)

>  <MOL>
O=C(Nc1ccc(N2CCNCC2)cc1)c1n[nH]cc1Nc1cc(Oc2ccccc2)ncn1

>  <READOUT_KIND>
bioavailability

>  <RESULT_UNITS>
%

>  <VAL>
33.3

$$$$

====

test: AUC(0 to t) in rat at 10 mg/kg, po; assay type: ADME, organism-based; design: dose 10 mg/kg, route po; details: in vivo

>  <MOL>
O=C(Nc1ccc(N2CCNCC2)cc1)c1n[nH]cc1Nc1cc(Oc2ccccc2)ncn1

>  <AUC(0-t), ng·h/mL>
1080

$$$$

====

target: Receptor-type tyrosine-protein kinase FLT3 (Homo sapiens, UniProt P36888, D835V/ITD); test: Binding affinity to FLT3 ITD/D835V mutant (unknown origin)
READOUT_KIND: Kd

>  <MOL>
O=C(Nc1ccc(N2CCNCC2)cc1)c1n[nH]cc1Nc1cc(Oc2ccccc2)ncn1

>  <VAL>
0.58 nM

$$$$

====

List of IC50 values.
molecular target: Receptor-type tyrosine-protein kinase FLT3 (Homo sapiens)

>  <MOL>
O=C(Nc1ccc(CN2CCOCC2)cc1)c1n[nH]cc1Nc1cc(C2CCCC2)ncn1

>  <IC50>
29.7 nM

$$$$
>  <MOL>
O=C(Nc1ccc(N2CCNCC2)cc1)c1n[nH]cc1Nc1cc(C2CC2)ncn1

>  <IC50>
8.42 nM

$$$$
>  <MOL>
O=C(Nc1ccc(N2CCNCC2)cc1)c1n[nH]cc1Nc1cc(OC2CCCCCC2)ncn1

>  <IC50>
28.8 nM

$$$$
>  <MOL>
O=C(Nc1ccc(N2CCNCC2)cc1)c1n[nH]cc1Nc1cc(OC2CCCC2)ncn1

>  <IC50>
7.84 nM

$$$$
>  <MOL>
CN1CCN(Cc2ccc(NC(=O)c3n[nH]cc3Nc3ccncn3)cc2)CC1

>  <IC50>
7.29 nM

$$$$
>  <MOL>
O=C(Nc1ccc(N2CCNCC2)cc1)c1n[nH]cc1Nc1cc(NC2CCCC2)ncn1

>  <IC50>
21.2 nM

$$$$
>  <MOL>
O=C(Nc1ccc(N2CCOCC2)cc1)c1n[nH]cc1Nc1cc(C2CCCC2)ncn1

>  <IC50>
58.3 nM

$$$$
>  <MOL>
O=C(Nc1ccc(N2CCNCC2)cc1)c1n[nH]cc1Nc1cc(C2CCCCCC2)ncn1

>  <IC50>
28.9 nM

$$$$
>  <MOL>
O=C(Nc1ccc(N2CCNCC2)cc1)c1n[nH]cc1Nc1cc(OC2CCCCC2)ncn1

>  <IC50>
19.2 nM

$$$$

====

assay: Half life in human liver microsomes by LC-MS/MS analysis; type: ADME, Microsome

>  <MOL>
O=C(Nc1ccc(N2CCNCC2)cc1)c1n[nH]cc1Nc1cc(Oc2ccccc2)ncn1

>  <RESULT_UNITS>
min

>  <half-life>
186

$$$$

====

assay: Cytotoxicity against mouse BaF3 cells assessed as inhibition of cell growth incubated for 72 hrs; assay type: toxicity, cell-based

>  <COMPOUND>
CC(C)(C)c1cc(NC(=O)Nc2ccc(-c3cn4c(n3)sc3cc(OCCN5CCOCC5)ccc34)cc2)no1 [QUIZARTINIB]

>  <CENSORING_OPERATOR>
>

>  <IC50 at 72 h (nM)>
10000

$$$$
>  <COMPOUND>
O=C(Nc1ccc(N2CCNCC2)cc1)c1n[nH]cc1Nc1cc(Oc2ccccc2)ncn1

>  <CENSORING_OPERATOR>
=

>  <IC50 at 72 h (nM)>
2920

$$$$
>  <COMPOUND>
CN1CCN(Cc2ccc(NC(=O)c3n[nH]cc3Nc3ncnc4[nH]ccc34)cc2)CC1

>  <CENSORING_OPERATOR>
=

>  <IC50 at 72 h (nM)>
155

$$$$
>  <COMPOUND>
CO[C@@H]1[C@H](N(C)C(=O)c2ccccc2)C[C@H]2O[C@]1(C)n1c3ccccc3c3c4c(c5c6ccccc6n2c5c31)C(=O)NC4 [MIDOSTAURIN]

>  <CENSORING_OPERATOR>
=

>  <IC50 at 72 h (nM)>
320

$$$$

====

target: Receptor-type tyrosine-protein kinase FLT3 (Homo sapiens, UniProt P36888, ITD); assay: Binding affinity to FLT3 ITD mutant (unknown origin)

>  <MOL>
O=C(Nc1ccc(N2CCNCC2)cc1)c1n[nH]cc1Nc1cc(Oc2ccccc2)ncn1

>  <Kd, µM>
0.0182

$$$$

====

test system: BaF3; assay: cells; type: functional, cell-based; details: Mus musculus, BaF3, 72 h
Description: Antiproliferative activity against mouse BaF3 cells harboring FLT3 ITD/F691L mutant assessed as inhibition of cell growth incubated for 72 hrs
pIC50: −log10 of the molar value.
List of pIC50 values.
READOUT_KIND: pIC50

>  <MOL>
O=C(Nc1ccc(N2CCNCC2)cc1)c1n[nH]cc1Nc1cc(Oc2ccccc2)ncn1

>  <READOUT_KIND>
pIC50

>  <VAL>
7.02

$$$$
>  <MOL>
CN1CCN(Cc2ccc(NC(=O)c3n[nH]cc3Nc3ncnc4[nH]ccc34)cc2)CC1

>  <READOUT_KIND>
pIC50

>  <VAL>
7.25

$$$$

====

system: BaF3; assay: cells; assay type: functional, cell-based; details: Mus musculus, BaF3, 72 h
Description: Antiproliferative activity against mouse BaF3 cells harboring FLT3 ITD/N676D mutant assessed as inhibition of cell growth incubated for 72 hrs
READOUT_KIND: IC50 (nM)

>  <MOL>
O=C(Nc1ccc(N2CCNCC2)cc1)c1n[nH]cc1Nc1cc(Oc2ccccc2)ncn1

>  <RESULT_UNITS>
nM

>  <VAL>
54

$$$$
>  <MOL>
CN1CCN(Cc2ccc(NC(=O)c3n[nH]cc3Nc3ncnc4[nH]ccc34)cc2)CC1

>  <RESULT_UNITS>
nM

>  <VAL>
73

$$$$

====

molecular target: Receptor-type tyrosine-protein kinase FLT3 (Homo sapiens, UniProt P36888, F691L/ITD); assay: Binding affinity to FLT3 ITD/F691L mutant (unknown origin)
pKd: −log10 of the molar value.
READOUT_KIND: pKd

>  <MOL>
O=C(Nc1ccc(N2CCNCC2)cc1)c1n[nH]cc1Nc1cc(Oc2ccccc2)ncn1

>  <TEST_SYSTEM>
Receptor-type tyrosine-protein kinase FLT3 (Homo sapiens, UniProt P36888, F691L/ITD)

>  <READOUT_KIND>
pKd

>  <VAL>
8.79

$$$$

====

molecular target: Cyclin-dependent kinase 6 (Homo sapiens, UniProt Q00534); assay: Inhibition of human CDK6 assessed as enzyme activity at 0.123 uM pretreated for 20 mins followed by [gamma-33P]-ATP addition and measured after 120 mins in presence of 10 uM ATP by radiometric Hot-SpotSM Kinase assay; parameters: scale not given: the % may be the effect or the level left; conditions: time 140.0 min
Classification field: enter satisfied for Activity values not below 90%, not satisfied for values below it.

>  <MOL>
O=C(Nc1ccc(N2CCNCC2)cc1)c1n[nH]cc1Nc1cc(NC2CCCC2)ncn1

>  <GROUP_LABEL>
not satisfied

$$$$
>  <MOL>
O=C(Nc1ccc(N2CCOCC2)cc1)c1n[nH]cc1Nc1cc(C2CCCC2)ncn1

>  <GROUP_LABEL>
satisfied

$$$$
>  <MOL>
O=C(Nc1ccc(N2CCNCC2)cc1)c1n[nH]cc1Nc1cc(-c2ccccc2)ncn1

>  <GROUP_LABEL>
satisfied

$$$$
